# Test system: Leptosphaeria nodorum
# experimental protocol: Wheat glume blotch (LEPTNO) disease control
# Type: in vivo
# setup conditions: Parastagonospora nodorum, 24 h, High volume application, 1 Day Protectant, read-out: LEPTNO 1 DP disease control
measured parameter: pest or weed control at 100 ppm

1. COc1ccnc(C(=O)N[C@H]2CCC[C@H](OCc3ccccc3)[C@@H](OCc3ccccc3)[C@H](C)OC2=O)c1OCOC(C)=O; 80 to 100%
2. C=C(C)CO[C@H]1CCC[C@H](NC(=O)c2nccc(OC)c2OCOC(=O)C(C)C)C(=O)O[C@@H](C)[C@@H]1OC; 80 to 100%
3. COc1ccnc(C(=O)N[C@H]2CCC[C@H](Oc3ccccc3)[C@@H](Oc3ccccc3)[C@H](C)OC2=O)c1OCOC(C)=O; 80 to 100%

###

Entries annotated with measured pest or weed control at 100 ppm
# System: Puccinia triticina; Synonym: Puccinia recondite f. sp. tritici
# experimental protocol: Wheat brown rust (PUCCRT) disease control on wheat seedlings
# Assay type: in vivo
# setup conditions: Puccinia triticina, 72 h; High volume application, 100 ppm; 3 Day Curative; read-out: PUCCRT 3DC disease control
measured parameter: pest or weed control at 100 ppm

1. COc1ccc(O[C@H]2CCC[C@H](NC(=O)c3nccc(OC)c3OCOC(=O)C(C)C)C(=O)O[C@@H](C)[C@@H]2OC2CCCC2)cc1; 80 to 100%
2. COc1ccnc(C(=O)N[C@H]2CCC[C@H](OCCCC(F)(F)F)[C@@H](Oc3ccccc3)[C@H](C)OC2=O)c1O; 80 to 100%
3. COc1ccnc(C(=O)N[C@H]2CCC[C@H](OCC(C)C)[C@@H](OCC(C)C)[C@H](C)OC2=O)c1OCOC(=O)C(C)C; 80 to 100%
4. COc1ccnc(C(=O)N[C@H]2CCC[C@H](Oc3ccc(F)cc3)[C@@H](Oc3ccc(F)cc3)[C@H](C)OC2=O)c1O; 80 to 100%
5. COc1ccnc(C(=O)N[C@H]2CCC[C@H](OCCCc3ccccc3)[C@@H](Oc3ccccc3)[C@H](C)OC2=O)c1OCOC(C)=O; 80 to 100%
6. COc1ccnc(C(=O)N[C@H]2CCC[C@H](OCC(C)C)[C@@H](OC(=O)C3CC3)[C@H](C)OC2=O)c1OCOC(C)=O; 80 to 100%
7. COc1ccnc(C(=O)N[C@H]2CCC[C@H](OC3CCCC3)[C@@H](OC3CCCC3)[C@H](C)OC2=O)c1O; 80 to 100%
8. COc1ccnc(C(=O)N[C@H]2CCC[C@H](OCCCc3ccccc3)[C@@H](OC3CCCC3)[C@H](C)OC2=O)c1OCOC(C)=O; 80 to 100%
9. COc1ccc(O[C@H]2[C@H](C)OC(=O)[C@@H](NC(=O)c3nccc(OC)c3OCOC(C)=O)CCC[C@@H]2Oc2ccc(OC)cc2)cc1; 80 to 100%
10. COc1ccnc(C(=O)N[C@H]2CCC[C@H](OCCCC(F)(F)F)[C@@H](OCCCC(F)(F)F)[C@H](C)OC2=O)c1OCOC(=O)C(C)C; 80 to 100%
11. CCCO[C@H]1[C@H](C)OC(=O)[C@@H](NC(=O)c2nccc(OC)c2OCOC(=O)C(C)C)CCC[C@@H]1OC1CCCC1; 80 to 100%
12. COc1ccnc(C(=O)N[C@H]2CCC[C@H](OCC(C)C)[C@@H](OC/C=C/C(F)(F)F)[C@H](C)OC2=O)c1OCOC(C)=O; 80 to 100%
13. CCCCCO[C@H]1[C@H](C)OC(=O)[C@@H](NC(=O)c2nccc(OC)c2OC(C)=O)CCC[C@@H]1Oc1ccccc1; 80 to 100%
14. COc1ccnc(C(=O)N[C@H]2CCC[C@H](OCCCc3ccccc3)[C@@H](Oc3ccccc3)[C@H](C)OC2=O)c1O; 0 to 80%
15. CCCO[C@H]1[C@H](C)OC(=O)[C@@H](NC(=O)c2nccc(OC)c2OC(C)=O)CCC[C@@H]1OCC(C)C; 80 to 100%
16. COc1ccnc(C(=O)N[C@H]2CCC[C@H](OCCCC(F)(F)F)[C@@H](OC3CCCC3)[C@H](C)OC2=O)c1OCOC(=O)C(C)C; 80 to 100%
17. COc1ccnc(C(=O)N[C@H]2CCC[C@H](Oc3ccccc3)[C@@H](OCCCc3ccccc3)[C@H](C)OC2=O)c1O; < 0%
18. COc1ccnc(C(=O)N[C@H]2CCC[C@H](OCC(C)C)[C@@H](OC3CCCC3)[C@H](C)OC2=O)c1OCOC(=O)C(C)C; 80 to 100%
19. COc1ccnc(C(=O)N[C@H]2CCC[C@H](OCCCC(F)(F)F)[C@@H](OCCCC(F)(F)F)[C@H](C)OC2=O)c1O; 0 to 80%
20. COc1ccnc(C(=O)N[C@H]2CCC[C@H](OCCCc3ccccc3)[C@@H](Oc3ccccc3)[C@H](C)OC2=O)c1OC(C)=O; 80 to 100%
21. COc1ccnc(C(=O)N[C@H]2CCC[C@H](OC(=O)C3CCCC3)[C@@H](OC(=O)C3CCCC3)[C@H](C)OC2=O)c1OCOC(=O)C(C)C; 80 to 100%
22. COc1ccc(O[C@H]2CCC[C@H](NC(=O)c3nccc(OC)c3OCOC(=O)C(C)C)C(=O)O[C@@H](C)[C@@H]2OCC(C)C)cc1; 80 to 100%
23. COc1ccnc(C(=O)N[C@H]2CCC[C@H](Oc3ccc(F)cc3)[C@@H](OCC(C)C)[C@H](C)OC2=O)c1O; 80 to 100%
24. COCCC(=O)Oc1c(OC)ccnc1C(=O)N[C@H]1CCC[C@H](OC2CCCC2)[C@@H](OCC(C)C)[C@H](C)OC1=O; 80 to 100%
25. COc1ccnc(C(=O)N[C@H]2CCC[C@H](OCC(C)C)[C@@H](OC(=O)C3CC3)[C@H](C)OC2=O)c1OCOC(=O)C(C)C; 80 to 100%
26. COc1ccnc(C(=O)N[C@H]2CCC[C@H](OC3CCCC3)[C@@H](OC(=O)C3CCCC3)[C@H](C)OC2=O)c1OCOC(C)=O; 80 to 100%
27. COc1ccnc(C(=O)N[C@H]2CCC[C@H](OC3CCCC3)[C@@H](OC(=O)C3CC3)[C@H](C)OC2=O)c1O; 80 to 100%

###

# System: Blumeria graminis f. sp. hordei; Synonym: Erysiphe graminis f. sp. hordei
# experimental protocol: Barley powdery mildew (ERYSGH) disease control
# Type: in vivo
# setup conditions: 24 h, 1 Day Protectant, high volume, read-out: Disease Control ERYSGH 1 DP
measured parameter: pest or weed control at 100 ppm

1) COc1ccnc(C(=O)N[C@H]2CCC[C@H](OCCCC(F)(F)F)[C@@H](OC3CCCC3)[C@H](C)OC2=O)c1OC(C)=O; 0 to 80%
2) CCCO[C@H]1CCC[C@H](NC(=O)c2nccc(OC)c2OCOC(C)=O)C(=O)O[C@@H](C)[C@@H]1Oc1ccccc1; 0 to 80%
3) COc1ccnc(C(=O)N[C@H]2CCC[C@H](OCC(C)C)[C@@H](OC)[C@H](C)OC2=O)c1OCOC(=O)C(C)C; 0 to 80%
4) COc1ccnc(C(=O)N[C@H]2CCC[C@H](Oc3ccccc3)[C@@H](OCC(C)C)[C@H](C)OC2=O)c1OCOC(=O)C(C)C; 80 to 100%
5) COc1ccnc(C(=O)N[C@H]2CCC[C@H](Oc3ccccc3)[C@@H](OCC(C)C)[C@H](C)OC2=O)c1OCOC(C)=O; 80 to 100%
6) CCCO[C@H]1CCC[C@H](NC(=O)c2nccc(OC)c2OC(C)=O)C(=O)O[C@@H](C)[C@@H]1Oc1ccccc1; 80 to 100%
7) CCCO[C@H]1CCC[C@H](NC(=O)c2nccc(OC)c2OCOC(=O)C(C)C)C(=O)O[C@@H](C)[C@@H]1Oc1ccccc1; < 0%

###

Entries annotated with measured pest or weed control at 121.5 g/ha
# Test system: Mycosphaerella graminicola; Anamorph: Septoria tritici
# experimental protocol: Leaf blotch of wheat (SEPTTR) disease control on wheat seedlings
# Type: in vivo
# setup conditions: Zymoseptoria tritici, 72 h; Wheat Leaf Blotch; 3 Day Curative; low volume application, 121.5 g/H; read-out: Disease Control SEPTTR 3 DC 121.5 g/H
measured parameter: pest or weed control at 121.5 g/ha

1. CCCO[C@H]1CCC[C@H](NC(=O)c2nccc(OC)c2OC(C)=O)C(=O)O[C@@H](C)[C@@H]1Oc1ccc(OC)cc1 [F274]; 80 to 100%
2. CCCO[C@H]1[C@H](C)OC(=O)[C@@H](NC(=O)c2nccc(OC)c2OC(C)=O)CCC[C@@H]1Oc1cccc(F)c1 [F284]; 80 to 100%
3. COc1ccnc(C(=O)N[C@H]2CCC[C@H](Oc3ccccc3)[C@@H](OC)[C@H](C)OC2=O)c1OC(C)=O [F258]; 0 to 80%
4. COc1ccnc(C(=O)N[C@H]2CCC[C@H](Oc3ccccc3)[C@@H](OC(=O)C3CC3)[C@H](C)OC2=O)c1OCOC(=O)C(C)C [F241]; < 0%
